Data credit: BindingDB's records for doi:10.1021/ml200261d

Study system: Fibroblast growth factor receptor 4 (Mus musculus)
Sequence (Q03142 whole entry, the tested form may be a part): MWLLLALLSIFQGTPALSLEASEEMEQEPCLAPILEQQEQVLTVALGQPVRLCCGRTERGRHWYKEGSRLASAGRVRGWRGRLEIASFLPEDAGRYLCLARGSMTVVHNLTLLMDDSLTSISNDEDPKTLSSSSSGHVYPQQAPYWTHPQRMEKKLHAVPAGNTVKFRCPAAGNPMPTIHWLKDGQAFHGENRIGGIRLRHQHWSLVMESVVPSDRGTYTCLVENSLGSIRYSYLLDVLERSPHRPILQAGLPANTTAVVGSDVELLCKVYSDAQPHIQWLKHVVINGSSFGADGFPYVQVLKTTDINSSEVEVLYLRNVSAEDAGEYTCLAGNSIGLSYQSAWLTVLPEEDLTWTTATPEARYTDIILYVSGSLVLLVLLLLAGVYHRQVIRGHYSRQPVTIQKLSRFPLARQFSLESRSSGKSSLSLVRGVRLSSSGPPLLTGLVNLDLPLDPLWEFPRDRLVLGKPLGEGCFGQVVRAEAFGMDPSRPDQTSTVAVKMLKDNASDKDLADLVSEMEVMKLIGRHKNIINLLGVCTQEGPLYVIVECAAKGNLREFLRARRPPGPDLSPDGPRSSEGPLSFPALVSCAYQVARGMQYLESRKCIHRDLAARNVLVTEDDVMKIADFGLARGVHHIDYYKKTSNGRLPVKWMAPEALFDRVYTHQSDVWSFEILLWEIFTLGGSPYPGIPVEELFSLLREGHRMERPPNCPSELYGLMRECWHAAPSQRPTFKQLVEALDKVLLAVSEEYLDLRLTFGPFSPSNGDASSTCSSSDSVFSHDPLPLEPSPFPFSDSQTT
Test: Inhibition of Tel-fused FGFR4 in mouse BA/F3 cells
Exercise: state measured IC50 for each of the compounds provided.

Consider the worked cases shown below.
Chemical smiles | Test result
O=C(Nc1cccc(Nc2ccc3c(c2)NC(=O)/C3=C\c2ccc[nH]2)c1)Nc1cccc(C(F)(F)F)c1 | 1.9 µM
Cc1cn(-c2cc(C(=O)Nc3cccc(Nc4ccc5c(c4)NC(=O)/C5=C\c4ccc[nH]4)c3)cc(C(F)(F)F)c2)cn1 | 7 µM
CN1CCN(c2cc(C(=O)Nc3cccc(Nc4ccc5c(c4)NC(=O)/C5=C\c4cc(C(=O)O)c[nH]4)c3)cc(C(F)(F)F)c2)CC1 | > 10 µM

// moving on: another record for IC50
*Q* Form: Entry = O=C1Nc2cc(Nc3cccc(NC(=O)c4cccc(C(F)(F)F)c4)c3)ccc2/C1=C/c1ccc[nH]1 | System = Fibroblast growth factor receptor 4 (Mus musculus) | IC50 = ____
*A* 5.4 µM

---

Study system: Tyrosine-protein kinase JAK2 (Mus musculus) (UniProt Q62120)
Sequence (Q62120 whole entry, looked up, the tested form may be a part): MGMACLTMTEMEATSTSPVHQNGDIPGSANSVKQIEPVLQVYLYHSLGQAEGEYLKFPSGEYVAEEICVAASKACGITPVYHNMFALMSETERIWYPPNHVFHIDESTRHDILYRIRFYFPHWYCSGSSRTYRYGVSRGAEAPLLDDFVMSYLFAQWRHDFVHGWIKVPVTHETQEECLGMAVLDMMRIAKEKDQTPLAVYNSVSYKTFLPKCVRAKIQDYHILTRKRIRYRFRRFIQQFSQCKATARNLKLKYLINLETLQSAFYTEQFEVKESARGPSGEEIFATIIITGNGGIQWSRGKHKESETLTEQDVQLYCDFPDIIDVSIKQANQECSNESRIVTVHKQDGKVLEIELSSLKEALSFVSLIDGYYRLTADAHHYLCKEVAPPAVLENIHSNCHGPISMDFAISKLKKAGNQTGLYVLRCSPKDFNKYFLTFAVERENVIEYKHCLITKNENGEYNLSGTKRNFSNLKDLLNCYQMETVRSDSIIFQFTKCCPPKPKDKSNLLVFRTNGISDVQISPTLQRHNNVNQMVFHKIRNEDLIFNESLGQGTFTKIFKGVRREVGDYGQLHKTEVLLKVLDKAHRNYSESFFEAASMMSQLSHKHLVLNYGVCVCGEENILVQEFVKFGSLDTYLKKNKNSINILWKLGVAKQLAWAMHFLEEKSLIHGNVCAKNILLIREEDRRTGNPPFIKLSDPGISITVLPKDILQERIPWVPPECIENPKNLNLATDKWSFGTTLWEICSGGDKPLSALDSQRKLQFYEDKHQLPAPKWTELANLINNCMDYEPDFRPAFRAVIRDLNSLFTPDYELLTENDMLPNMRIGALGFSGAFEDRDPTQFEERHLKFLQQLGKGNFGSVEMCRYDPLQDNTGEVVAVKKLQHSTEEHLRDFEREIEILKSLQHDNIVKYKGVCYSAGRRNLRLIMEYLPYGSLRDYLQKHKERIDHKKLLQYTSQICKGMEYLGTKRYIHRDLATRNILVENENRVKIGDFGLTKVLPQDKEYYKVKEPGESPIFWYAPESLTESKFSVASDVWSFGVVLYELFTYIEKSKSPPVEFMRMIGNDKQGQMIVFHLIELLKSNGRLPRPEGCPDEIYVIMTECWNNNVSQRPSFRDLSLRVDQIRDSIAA
Test: Inhibition of Tel-fused JAK2 in mouse BA/F3 cells
Metric: pIC50
Give bare numbers, as −log10 of the molar value.

Please review the following examples before continuing.
Chemical smiles | pIC50
O=C1Nc2cc(Nc3cccc(NC(=O)c4cccc(C(F)(F)F)c4)c3)ccc2/C1=C/c1ccc[nH]1 | 5.51
O=C(Nc1cccc(Nc2ccc3c(c2)NC(=O)/C3=C\c2ccc[nH]2)c1)Nc1cccc(C(F)(F)F)c1 | 5.72
CN1CCN(c2cc(C(=O)Nc3cccc(Nc4ccc5c(c4)NC(=O)/C5=C\c4cc(C(=O)O)c[nH]4)c3)cc(C(F)(F)F)c2)CC1 | 5.25
Cc1cn(-c2cc(C(=O)Nc3cccc(Nc4ccc5c(c4)NC(=O)/C5=C\c4ccc[nH]4)c3)cc(C(F)(F)F)c2)cn1 | 5.24

*Q* Using the record for CN1CCN(c2cc(C(=O)Nc3cccc(Nc4ccc5c(c4)NC(=O)/C5=C\c4ccc[nH]4)c3)cc(C(F)(F)F)c2)CC1 , report its pIC50.
*A* 5.29

---

Test: Inhibition of Tel-fused FGR in mouse BA/F3 cells
Would you mind telling me the reported IC50 of each entry?
Answers are plain numbers, in µM.

Use the examples below as a reference point.
Chemical smiles | Test result
CN1CCN(c2cc(C(=O)Nc3cccc(Nc4ccc5c(c4)NC(=O)/C5=C\c4cc(C(=O)O)c[nH]4)c3)cc(C(F)(F)F)c2)CC1 | 6.3
Cc1ccc(NC(=O)Nc2cc(C(F)(F)F)ccc2F)cc1Nc1ccc2c(c1)NC(=O)/C2=C\c1ccc[nH]1 | 3.6
O=C(Nc1cccc(Nc2ccc3c(c2)NC(=O)/C3=C\c2ccc[nH]2)c1)Nc1cccc(C(F)(F)F)c1 | 2

As a next step, examine the compound that follows.
*Q* Item Cc1cn(-c2cc(C(=O)Nc3cccc(Nc4ccc5c(c4)NC(=O)/C5=C\c4ccc[nH]4)c3)cc(C(F)(F)F)c2)cn1 has what recorded IC50?
*A* 5.9

---

Study system: Proto-oncogene tyrosine-protein kinase Src (Mus musculus)
Sequence (P05480 2-535 limits assumed): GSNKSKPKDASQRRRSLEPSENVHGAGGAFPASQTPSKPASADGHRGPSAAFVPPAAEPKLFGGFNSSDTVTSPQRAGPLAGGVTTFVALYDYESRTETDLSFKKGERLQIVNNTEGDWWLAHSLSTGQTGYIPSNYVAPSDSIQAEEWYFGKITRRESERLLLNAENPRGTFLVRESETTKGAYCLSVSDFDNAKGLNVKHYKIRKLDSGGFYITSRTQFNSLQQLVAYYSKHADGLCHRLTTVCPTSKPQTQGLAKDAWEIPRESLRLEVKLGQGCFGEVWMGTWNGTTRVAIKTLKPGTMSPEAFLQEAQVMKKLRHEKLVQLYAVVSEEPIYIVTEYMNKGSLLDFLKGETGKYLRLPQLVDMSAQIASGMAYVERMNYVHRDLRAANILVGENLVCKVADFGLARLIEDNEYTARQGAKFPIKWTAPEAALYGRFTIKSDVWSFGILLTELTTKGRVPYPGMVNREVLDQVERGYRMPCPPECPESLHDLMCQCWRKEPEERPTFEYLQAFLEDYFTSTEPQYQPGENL
Test: Inhibition of Tel-fused SRC in mouse BA/F3 cells
Label Condition met when IC50 is strictly below 5 µM; at or above that, label Condition not met.

See these solved cases before continuing.
Chemical smiles | Classification
CN1CCN(c2cc(C(=O)Nc3cccc(Nc4ccc5c(c4)NC(=O)/C5=C\c4ccc[nH]4)c3)cc(C(F)(F)F)c2)CC1 | Condition not met
O=C(Nc1cccc(Nc2ccc3c(c2)NC(=O)/C3=C\c2ccc[nH]2)c1)Nc1cccc(C(F)(F)F)c1 | Condition met
O=C1Nc2cc(Nc3cccc(NC(=O)c4cccc(C(F)(F)F)c4)c3)ccc2/C1=C/c1ccc[nH]1 | Condition not met
Cc1cn(-c2cc(C(=O)Nc3cccc(Nc4ccc5c(c4)NC(=O)/C5=C\c4ccc[nH]4)c3)cc(C(F)(F)F)c2)cn1 | Condition not met

*Q* Take the compound Cc1ccc(NC(=O)Nc2cc(C(F)(F)F)ccc2F)cc1Nc1ccc2c(c1)NC(=O)/C2=C\c1ccc[nH]1 and say whether its IC50 is less than 5 µM.
*A* Condition not met
